The values you see were collected from the supplement of paper PMC6555819.

Tested on: RARg homodimer (NR concentration 270 nM)
Experiment: PBM binding z-score (relative to random genomic background probes); higher = stronger binding; sequences stand for … in GC…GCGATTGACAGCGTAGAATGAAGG
Property Measured: PBM binding z-score

// solved cases for PBM binding z-score follow
>>> result("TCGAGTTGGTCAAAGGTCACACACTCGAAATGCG")
5.89
>>> result("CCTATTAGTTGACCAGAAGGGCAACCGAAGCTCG")
0.985
>>> result("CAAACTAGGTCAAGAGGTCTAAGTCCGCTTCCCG")
4.4
>>> result("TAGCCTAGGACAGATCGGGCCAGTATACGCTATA")
0.0371
>>> result("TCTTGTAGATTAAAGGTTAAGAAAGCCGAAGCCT")
0.588
>>> result("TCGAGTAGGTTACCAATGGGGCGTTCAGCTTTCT")
0.225
>>> result("TGAATGAGGTTAAAGATCAAGGAACGTGGCGTCG")
1.35
>>> result("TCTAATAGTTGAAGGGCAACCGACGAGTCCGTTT")
0.887
>>> result("CTACCAAGGTGCACAAGGTCGTTGATTACTATTC")
0.782
>>> result("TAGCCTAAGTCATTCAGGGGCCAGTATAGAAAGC")
0.386

Challenge: Data request, read-out PBM binding z-score, for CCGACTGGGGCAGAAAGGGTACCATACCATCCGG
Response given: 0.273

Challenge: Same again, this time with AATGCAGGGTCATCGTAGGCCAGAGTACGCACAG
Response given: 4.83

---

Test system: PPARg:RXRa 90nM:30nM, anti-RXR (NR concentration 90 nM, RXRa partner concentration 30 nM)
Experiment: PBM binding z-score (relative to random genomic background probes); higher = stronger binding; sequences stand for … in GC…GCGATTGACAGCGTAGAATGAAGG
Property Measured: PBM binding z-score
Give a plain numeric answer without units written out.

Guide cases for PBM binding z-score, answers given:
>>> quantitative_result("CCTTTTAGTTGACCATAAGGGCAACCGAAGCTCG")
0.427
>>> quantitative_result("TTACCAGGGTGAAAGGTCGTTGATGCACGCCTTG")
9.22
>>> quantitative_result("CCTAGTAGGCCAATCTGGGTCACTCAAGGCTTGA")
2.26
>>> quantitative_result("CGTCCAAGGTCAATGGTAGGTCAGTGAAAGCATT")
3.54
>>> quantitative_result("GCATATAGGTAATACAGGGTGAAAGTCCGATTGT")
0.965

Challenge: Could you share which PBM binding z-score value was measured for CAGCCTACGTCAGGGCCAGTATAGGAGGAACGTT ?
Response given: -0.832

Challenge: Lookup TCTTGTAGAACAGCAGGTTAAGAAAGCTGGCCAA
Response given: 1.9

---

System: THRa homodimer (NR concentration 90 nM)
Experiment: PBM binding z-score (relative to random genomic background probes); higher = stronger binding; sequences stand for … in GC…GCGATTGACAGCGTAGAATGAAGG
Measured PBM binding z-score of individual entries
Answer with a number only.

A selection of reference data follows.
>>> quantitative_result("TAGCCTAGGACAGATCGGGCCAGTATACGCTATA")
-0.623
>>> quantitative_result("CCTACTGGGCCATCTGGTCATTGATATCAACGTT")
0.0962
>>> quantitative_result("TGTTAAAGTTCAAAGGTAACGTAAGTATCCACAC")
0.278
>>> quantitative_result("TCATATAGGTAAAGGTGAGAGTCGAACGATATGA")
-0.508

Challenge: So what's the measured PBM binding z-score for this one? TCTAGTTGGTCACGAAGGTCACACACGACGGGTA
Response given: 1.5

Challenge: Field entry: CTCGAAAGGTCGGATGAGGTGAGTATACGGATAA
Response given: 1.3

Challenge: Another sequence to look at: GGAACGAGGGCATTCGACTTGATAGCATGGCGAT
Response given: -0.453

Challenge: Moving on to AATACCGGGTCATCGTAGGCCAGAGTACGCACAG
Response given: 1.69

Challenge: What do you get for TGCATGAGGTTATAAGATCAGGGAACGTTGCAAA ?
Response given: 0.273

Challenge: // repeat for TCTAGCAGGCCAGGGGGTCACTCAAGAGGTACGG and report
Response given: 1.52

Challenge: Subsequent entry: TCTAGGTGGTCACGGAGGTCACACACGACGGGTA
Response given: 2.2

Challenge: Next sequence up: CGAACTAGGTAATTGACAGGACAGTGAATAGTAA
Response given: -0.0579

---

Tested on: PPARg:RXRa DBDmut IVT, anti-RXR (DBD mutation: RXRa K156A/R161A, NR concentration 270 nM, RXRa partner concentration 90 nM)
Assay: PBM binding z-score (relative to random genomic background probes); higher = stronger binding; sequences stand for … in GC…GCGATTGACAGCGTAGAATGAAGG
Property Measured: PBM binding z-score
I only need the number, thanks.

Previously resolved entries follow.
>>> quantitative_result("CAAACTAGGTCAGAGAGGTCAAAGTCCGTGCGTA")
7.7
>>> quantitative_result("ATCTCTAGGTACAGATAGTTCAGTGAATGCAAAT")
-0.154
>>> quantitative_result("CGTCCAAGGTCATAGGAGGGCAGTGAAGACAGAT")
3.1

We now examine a further sequence.
Challenge: Name the reported PBM binding z-score value associated with the sequence ATGGAAAGGTCGAGGTGAGTATAGAGAAAGGGAA
Response given: 0.536

---

Test system: PXR:RXRa (NR concentration 270 nM, RXRa partner concentration 90 nM)
Assay: PBM binding z-score (relative to random genomic background probes); higher = stronger binding; sequences stand for … in GC…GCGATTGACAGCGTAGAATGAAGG
Entries are sorted into classes by PBM binding z-score as follows: low interval = under 1, middle interval = from 1 up to 3, high interval = 3 and over

Observe how each entry below is paired with its result.
>>> class_assignment("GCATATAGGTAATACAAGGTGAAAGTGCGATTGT")
"low interval"
>>> class_assignment("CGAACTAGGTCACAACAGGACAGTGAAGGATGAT")
"middle interval"
>>> class_assignment("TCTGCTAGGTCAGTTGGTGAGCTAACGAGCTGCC")
"low interval"

Challenge: Which bin should I file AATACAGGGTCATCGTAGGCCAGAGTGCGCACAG under?
Response given: high interval

Challenge: Moving on to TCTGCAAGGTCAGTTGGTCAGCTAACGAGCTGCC
Response given: middle interval

Challenge: How about this sequence: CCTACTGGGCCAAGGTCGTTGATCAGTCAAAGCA
Response given: low interval

Challenge: Moving on to the next sequence: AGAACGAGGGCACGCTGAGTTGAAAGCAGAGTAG
Response given: middle interval

Challenge: Do the same for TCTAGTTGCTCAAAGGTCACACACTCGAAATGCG please
Response given: high interval

---

This listing pairs sequences with measured PBM binding z-score.
Tested on: PPARg:RXRa 30nM:10nM, anti-RXR (NR concentration 30 nM, RXRa partner concentration 10 nM)
Assay: PBM binding z-score (relative to random genomic background probes); higher = stronger binding; sequences stand for … in GC…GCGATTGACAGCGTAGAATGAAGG
// return a plain number; no unit text

>>> quantitative_result("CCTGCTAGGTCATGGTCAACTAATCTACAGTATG")
0.82

Please look at the following sequence next.
Challenge: API: value(readout=PBM binding z-score, system=PPARg:RXRa 30nM:10nM, anti-RXR (NR concentration 30 nM, RXRa partner concentration 10 nM)) for record GCGTGTAGATCAAGGTTAAGAAAGACTAAGCTAA
Response given: -0.0969

---

Below: a set of entries, each annotated with reported PBM binding z-score.
Tested on: PPARg:RXRa 90nM:30nM, anti-RXR (NR concentration 90 nM, RXRa partner concentration 30 nM)
Test: PBM binding z-score (relative to random genomic background probes); higher = stronger binding; sequences stand for … in GC…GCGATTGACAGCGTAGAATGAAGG

>>> result("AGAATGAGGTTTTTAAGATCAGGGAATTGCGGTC")
-0.139
>>> result("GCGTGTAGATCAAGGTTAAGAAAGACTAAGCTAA")
0.289
>>> result("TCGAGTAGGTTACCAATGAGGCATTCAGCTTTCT")
1.22
>>> result("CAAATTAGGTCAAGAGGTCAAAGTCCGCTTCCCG")
9.12
>>> result("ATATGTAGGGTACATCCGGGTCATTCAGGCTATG")
2.33
>>> result("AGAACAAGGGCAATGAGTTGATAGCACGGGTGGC")
-0.176
>>> result("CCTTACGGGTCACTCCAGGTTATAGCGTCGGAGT")
2.7
>>> result("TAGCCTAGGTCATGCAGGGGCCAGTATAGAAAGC")
1.5
>>> result("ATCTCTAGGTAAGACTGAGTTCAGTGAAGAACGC")
0.0734
>>> result("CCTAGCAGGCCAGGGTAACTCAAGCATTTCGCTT")
-0.605

Challenge: Look up PBM binding z-score: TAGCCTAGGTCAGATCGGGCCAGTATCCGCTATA
Response given: -0.0749

Challenge: Okay, and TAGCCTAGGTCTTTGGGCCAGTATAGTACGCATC ?
Response given: -0.513

Challenge: Would you kindly repeat that for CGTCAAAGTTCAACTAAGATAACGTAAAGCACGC ?
Response given: 4.27

Challenge: Another sequence: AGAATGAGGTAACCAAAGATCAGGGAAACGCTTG
Response given: 0.541

Challenge: Another sequence to look at: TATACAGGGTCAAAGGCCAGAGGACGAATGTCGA
Response given: 7.21

Challenge: Same lookup for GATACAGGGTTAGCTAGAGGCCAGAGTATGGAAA , please.
Response given: -0.205

Challenge: And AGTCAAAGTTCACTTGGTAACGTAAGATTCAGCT ?
Response given: 4.52
